- System: BT-549 breast
- Measurement Notes: NCI tumour cell line growth inhibition, 48 h; in the data active = GI50 below about 0.43 µM; inactive = the rest
Classes to choose from: YES (active), NO (inactive)

Compound: O=C(CCl)Nc1ccc2c(Nc3cc(O)ccc3Cl)ncnc2c1
Assigned Category: NO

Field: outcome | Entry: COc1ccc2oc(=O)cc(C3c4ccc([nH]4)C(c4cc(=O)oc5ccc(OC)cc45)c4ccc([nH]4)C(c4cc(=O)oc5ccc(OC)cc45)c4ccc([nH]4)C(c4cc(=O)oc5ccc(OC)cc45)c4ccc3[nH]4)c2c1 (configuration not stated)
NO

Field: outcome | Entry: O=C(Nc1ccc(-n2ccc3c(NC(=O)c4ccccc4)nccc32)cc1)c1cccc(C(F)(F)F)c1
NO

Field: outcome | Entry: COc1ccc(C(=O)/C=C/c2ccc(OCc3ccc(Cl)cc3)cc2)cc1OC
NO

Field: outcome | Entry: O=c1cc(N2CCOCC2)oc2c(-c3ccc4c(c3)OCCO4)csc12
YES

Field: outcome | Entry: Cn1cc(-c2ccc(-c3cn(C)c4ncccc34)[nH]2)c2cccnc21
NO

Field: outcome | Entry: c1cc2ccc3cc2cc1CNCCN1CCNCc2ccc4ccc(cc4c2)CNCCN(CCNC3)CCNCc2ccc3ccc(cc3c2)CNCC1
NO

Field: outcome | Entry: O=[N+]([O-])[O][Sn]([O][Sn]([O][N+](=O)[O-])([c]1ccccc1)[c]1ccccc1)([c]1ccccc1)[c]1ccccc1
NO

Field: outcome | Entry: C[C@@H]1CCC2[C@@H](C)[C@@H](OC3CCC(O)CC3)OC3O[C@@]4(C)CCC1[C@]32OO4 (some centres not stated)
NO

Field: outcome | Entry: N#Cc1c(-c2ccc(Cl)cc2)cc(-c2cc(O)ccc2O)nc1N
NO

Field: outcome | Entry: O=C1N=C(c2c(-c3[nH]c(=O)c4ccc(Br)cc4c3O)c(O)c3ccccc3c2O)C(=O)c2cc(Br)ccc21
YES

Field: outcome | Entry: Nc1ncc2ccc3c(ccn3C3CC(O)C(CO)O3)c2n1 (configuration not stated)
NO

###

- Test system: HOP-62 NSCLC
- Measurement Notes: NCI tumour cell line growth inhibition, 48 h
Property: TGI

Compound: Cn1cc(-c2ccc(-c3cn(C)c4ncccc34)[nH]2)c2cccnc21
TGI: 24.8 µM
--
Compound: O=C(N/N=C\c1cc(Cl)ccc1O)c1ccncc1
TGI: > 100 µM
--
Compound: N#Cc1ccccc1C#C/C=C\C#Cc1cccs1
TGI: 61.4 µM

Provide TGI value for the following compound: COc1ccc(C(=O)/C=C/c2ccc(OCc3ccc(Cl)cc3)cc2)cc1OC
419 µM

Provide TGI value for the following compound: COC(=O)/C(C#N)=C1\CCC(Nc2cccc(C(F)(F)F)c2)N1C (stereo unspecified)
> 100 µM

Provide TGI value for the following compound: COc1cc2c3c(n(CCCN(C)C)c(=O)c2cc1OC)-c1cc2c(cc1C3=O)OCO2
0.421 µM

Provide TGI value for the following compound: CN1N=C(c2ccncc2)OC1c1ccc(Cl)cc1Cl (stereo unspecified)
> 100 µM

Provide TGI value for the following compound: C/C1=C/C2OC(=O)C3(C)C2C(CC2(C)OC1=CC2=O)OC3(O)C(C)C (stereo unspecified)
> 100 µM

Provide TGI value for the following compound: O=C(/C=C/c1ccc(OCc2ccccc2)c(OCc2ccccc2)c1)OCc1ccccc1
> 100 µM

Provide TGI value for the following compound: O=[N+]([O-])c1ccc(-c2nc(/C=N/N3CCCCC3)cs2)o1
> 100 µM

Provide TGI value for the following compound: Cc1nc2c(n1-c1ccc(Br)cc1)C(=O)c1ccccc1C2=O
> 100 µM
